- tested.target: T1, cynomolgus BDCA2 (cynomolgus monkey, UniProt A0A2K5UWP4 1-212)
- T1 construct: whole, on cells; also called Cyno BDCA2; cynoBDCA2
- T1 sequence: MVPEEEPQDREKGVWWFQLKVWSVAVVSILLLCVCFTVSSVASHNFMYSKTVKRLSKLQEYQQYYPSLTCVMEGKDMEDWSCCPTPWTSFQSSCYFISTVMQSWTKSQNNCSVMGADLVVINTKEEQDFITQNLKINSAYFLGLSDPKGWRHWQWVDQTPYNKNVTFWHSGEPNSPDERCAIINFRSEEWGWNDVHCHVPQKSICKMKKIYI
- test.details: FACS, 293F-cynoBDCA2 cells
attribute.measured: EC50 (nM)

[[record]]
binder = "mab033c (antibody, V domains shown) VH: EVQMVESGGDLVKPGDSLKLSCAASGFTFRSYGMSWVRQTPDKRLEWVATISSGDSYTYYPDSVKGRFTISRDNAKNTLYLQMSSLKSEDTALYYCARQIYYDYAYYFDFWGQGTTLTVSS VL: DIVLTQSPASLAVSLGQRATISCRASESVSFRTSHLMHWYQQKPGQPPKLLIYGASNLESGVPARFSGSGSETDFTLNIHPVEEEDAAAYFCQQSIEDPPTFGGGTKLEIK"
attribute_measured = "EC50"
measurement = 0.56

[[record]]
binder = "Hu033-15 (antibody, IgG1, V domains shown, Humanized IgG1; also called Hu033-15(BM2)) VH: EVQLVESGGGLVKPGGSLRLSCAASGFTFRSYGMSWVRQAPGKRLEWVSTISSGDSYTYYPDSVKGRFTISRDNAKNSLYLQMNSLRAEDTAVYYCARQIYYDYAYYFDFWGQGTTVTVSS VL: EIVLTQSPATLSLSPGERATLSCRASESVSFRTSHLMHWYQQKPGQAPRLLIYGASNLESGIPARFSGSGSGTDFTLTISRLEPEDFAVYYCQQSIEDPPTFGGGTKVEIK"
attribute_measured = "EC50"
measurement = 1.27

[[record]]
binder = "Hu033-06 (antibody, IgG1, V domains shown, Humanized IgG1; also called Hu033-06(BM3)) VH: EVQLVESGGGLVKPGGSLRLSCAASGFTFSSYGMSWVRQAPGKGLEWVSTISSGDSYTYYPDSVKGRFTISRDNAKNSLYLQMNSLRAEDTAVYYCARQIYYDYAYYFDFWGQGTTVTVSS VL: DIVLTQSPDSLAVSLGERATINCRASESVSFRTSHLMHWYQQKPGQPPKLLIYGASNLESGVPDRFSGSGSETDFTLTISPLQAEDVAVYFCQQSIEDPPTFGGGTKVEIK"
attribute_measured = "EC50"
measurement = 1.41

